system: Brain; test: Toxicity in mouse assessed as effect on manganese level in brain per gram of organ at 0.4 mmol/kg, ip qd for 5 days; assay type: organism-based; conditions: in vivo, 120 h
Recorded Activity for the following compounds
Note: unit µg/g is implicit; provide only the numeric part.

Check out these entries, answers already filled in.
> print(dat)
                                   compound  reportedendpoint  unitstext  observedmeasurement
1  CC1(C)SC(C(=O)O)C(C(=O)NCC(=O)O)S1 (stereo not drawn)          Activity       µg/g                 0.74
2  CC[C@H](C)[C@H](NC(=O)C1SC(C)(C)SC1C(=O)O)C(=O)O (stereo partly drawn)          Activity       µg/g                 0.75

Activity of CC1(C)SC(C(=O)O)C(C(=O)N[C@@H](CCC(N)=O)C(=O)O)S1 (stereo partly drawn) on Brain? 0.69

----------
experiment: Apparent permeability from apical to basolateral side of human Caco2 cells at 4 mM up to 120 mins by HPLC analysis; type: ADME, cell-based; conditions: Caco-2
Recorded Papp A→B at 2 h, 4000 µM for the following molecules
Note: unit ×10⁻⁶ cm/s is implicit; provide only the numeric part.

Check out these entries, answers already filled in.
> print(dat)
                                   molecule          reportedendpoint   unitstext  observedmeasurement
1  CC1(C)SC(C(=O)O)C(C(=O)O)S1 (stereo unspecified)  Papp A→B at 2 h, 4000 µM  ×10⁻⁶ cm/s                 13.7
2  CC1(C)SC(C(=O)O)C(C(=O)N[C@@H](CC(N)=O)C(=O)O)S1 (stereo partly specified)  Papp A→B at 2 h, 4000 µM  ×10⁻⁶ cm/s                 16.6
3  CC[C@H](C)[C@H](NC(=O)C1SC(C)(C)SC1C(=O)O)C(=O)O (stereo partly specified)  Papp A→B at 2 h, 4000 µM  ×10⁻⁶ cm/s                 14.2

For O=C([O-])C(S)C(S)C(=O)[O-].[Na+].[Na+] (stereo unspecified) , what is its reported Papp A→B at 2 h, 4000 µM? 11

// next record CC(C)(S)C(N)C(=O)O (racemic) [DL-PENICILLAMINE] 13.1

// next record CSCC[C@H](NC(=O)C1SC(C)(C)SC1C(=O)O)C(=O)O (stereo partly specified) 15.7

----------
Recorded Activity for the following molecules
system: Liver; assay: Toxicity in mouse assessed as effect on manganese level in liver per gram of organ at 0.4 mmol/kg, ip qd for 5 days; type: organism-based; details: in vivo, 120 h
Note: unit µg/g is implicit; provide only the numeric part.

> print(dat)
                                   molecule  reportedendpoint  observedmeasurement
1  CC1(C)SC(C(=O)O)C(C(=O)NCC(=O)O)S1 (stereo not drawn)          Activity                 1.29
2  CC1(C)SC(C(=O)O)C(C(=O)N[C@@H](CCC(=O)O)C(=O)O)S1 (stereo partly drawn)          Activity                  1.4
3  CC1(C)SC(C(=O)O)C(C(=O)N[C@@H](CO)C(=O)O)S1 (stereo partly drawn)          Activity                 1.37
4  CC1(C)SC(C(=O)O)C(C(=O)N[C@@H](CC(N)=O)C(=O)O)S1 (stereo partly drawn)          Activity                 1.38
5  CC[C@H](C)[C@H](NC(=O)C1SC(C)(C)SC1C(=O)O)C(=O)O (stereo partly drawn)          Activity                 1.34
6  CC1(C)SC(C(=O)O)C(C(=O)N[C@@H](CCC(N)=O)C(=O)O)S1 (stereo partly drawn)          Activity                 1.37

For CC1(C)SC(C(=O)O)C(C(=O)N[C@@H](Cc2c[nH]c3ccccc23)C(=O)O)S1 (stereo partly drawn) , what is its reported Activity? 1.4

// next record CSCC[C@H](NC(=O)C1SC(C)(C)SC1C(=O)O)C(=O)O (stereo partly drawn) 1.39
